# Assayed target: POU2 (OCT2 POU domain) (human, UniProt P09086 175-386)
# Sequence: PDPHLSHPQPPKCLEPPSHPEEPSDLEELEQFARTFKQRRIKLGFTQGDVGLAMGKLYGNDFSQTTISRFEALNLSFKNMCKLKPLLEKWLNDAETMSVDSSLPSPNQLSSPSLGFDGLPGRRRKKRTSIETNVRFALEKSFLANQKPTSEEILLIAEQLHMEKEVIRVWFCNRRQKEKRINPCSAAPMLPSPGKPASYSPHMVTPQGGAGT
# Measurement description: EMSA-SELEX-seq; no BOB1; 20 mM Tris-HCl pH 7.6, 140 mM NaCl, 10% glycerol, 0.5 mM EDTA, 0.05% Triton X-100, 0.1 mg/mL BSA, 0.1 mg/mL poly(dI-dC), 5 mM DTT, room temperature, 20 min; high values mean tight binding
# Stated conditions: protein: recombinant; dsDNA, one strand shown
Value kind: binding signal

sequence_text=AGCCAAAG recorded_measurement="0.0219 % of ANNNNAAN 8-mers"
sequence_text=AGTCGAAG recorded_measurement="0.0357 % of ANNNNAAN 8-mers"

Record binding signal per entry; entries follow.
1. AAAAAAAG
2. AACAGAAG
3. ATCAGAAA
4. AAGGGAAT
5. ATCCTAAA
6. AAGCCAAA

A:
1. 0.0938 % of ANNNNAAN 8-mers
2. 0.0339 % of ANNNNAAN 8-mers
3. 0.0529 % of ANNNNAAN 8-mers
4. 0.121 % of ANNNNAAN 8-mers
5. 0.0328 % of ANNNNAAN 8-mers
6. 0.0414 % of ANNNNAAN 8-mers

Quick one: give me binding signal for each item below, same order please.
1. AGCCGAAT
2. ACAGAAAT
3. AAGAAAAG
4. ATGGCAAG
5. AGGAAAAT
6. AGCGAAAT

A:
["0.0368 % of ANNNNAAN 8-mers", "0.0633 % of ANNNNAAN 8-mers", "0.0633 % of ANNNNAAN 8-mers", "0.0414 % of ANNNNAAN 8-mers", "0.2 % of ANNNNAAN 8-mers", "0.0627 % of ANNNNAAN 8-mers"]

Batch: binding signal for all items listed.
1. AACGCAAC
2. AGAATAAA
3. ATACGAAG

A:
1. 0.0201 % of ANNNNAAN 8-mers
2. 0.182 % of ANNNNAAN 8-mers
3. 0.0552 % of ANNNNAAN 8-mers

For each of the items listed, what is its binding signal?
1. AACATAAA
2. ACTTAAAT
3. AAGAAAAC

A:
["0.125 % of ANNNNAAN 8-mers", "0.11 % of ANNNNAAN 8-mers", "0.0345 % of ANNNNAAN 8-mers"]

List the reported binding signal of each sequence below.
1. ATACCAAC
2. ATTCCAAT

A:
["0.0276 % of ANNNNAAN 8-mers", "0.11 % of ANNNNAAN 8-mers"]
